Value source: ChEMBL document CHEMBL3988442

- system_name: Chromo domain-containing protein 1 (Saccharomyces cerevisiae (strain ATCC 204508 / S288c) (Baker's yeast)) (UniProt P32657)
- Sequence (P32657 whole entry, the tested form may be a part): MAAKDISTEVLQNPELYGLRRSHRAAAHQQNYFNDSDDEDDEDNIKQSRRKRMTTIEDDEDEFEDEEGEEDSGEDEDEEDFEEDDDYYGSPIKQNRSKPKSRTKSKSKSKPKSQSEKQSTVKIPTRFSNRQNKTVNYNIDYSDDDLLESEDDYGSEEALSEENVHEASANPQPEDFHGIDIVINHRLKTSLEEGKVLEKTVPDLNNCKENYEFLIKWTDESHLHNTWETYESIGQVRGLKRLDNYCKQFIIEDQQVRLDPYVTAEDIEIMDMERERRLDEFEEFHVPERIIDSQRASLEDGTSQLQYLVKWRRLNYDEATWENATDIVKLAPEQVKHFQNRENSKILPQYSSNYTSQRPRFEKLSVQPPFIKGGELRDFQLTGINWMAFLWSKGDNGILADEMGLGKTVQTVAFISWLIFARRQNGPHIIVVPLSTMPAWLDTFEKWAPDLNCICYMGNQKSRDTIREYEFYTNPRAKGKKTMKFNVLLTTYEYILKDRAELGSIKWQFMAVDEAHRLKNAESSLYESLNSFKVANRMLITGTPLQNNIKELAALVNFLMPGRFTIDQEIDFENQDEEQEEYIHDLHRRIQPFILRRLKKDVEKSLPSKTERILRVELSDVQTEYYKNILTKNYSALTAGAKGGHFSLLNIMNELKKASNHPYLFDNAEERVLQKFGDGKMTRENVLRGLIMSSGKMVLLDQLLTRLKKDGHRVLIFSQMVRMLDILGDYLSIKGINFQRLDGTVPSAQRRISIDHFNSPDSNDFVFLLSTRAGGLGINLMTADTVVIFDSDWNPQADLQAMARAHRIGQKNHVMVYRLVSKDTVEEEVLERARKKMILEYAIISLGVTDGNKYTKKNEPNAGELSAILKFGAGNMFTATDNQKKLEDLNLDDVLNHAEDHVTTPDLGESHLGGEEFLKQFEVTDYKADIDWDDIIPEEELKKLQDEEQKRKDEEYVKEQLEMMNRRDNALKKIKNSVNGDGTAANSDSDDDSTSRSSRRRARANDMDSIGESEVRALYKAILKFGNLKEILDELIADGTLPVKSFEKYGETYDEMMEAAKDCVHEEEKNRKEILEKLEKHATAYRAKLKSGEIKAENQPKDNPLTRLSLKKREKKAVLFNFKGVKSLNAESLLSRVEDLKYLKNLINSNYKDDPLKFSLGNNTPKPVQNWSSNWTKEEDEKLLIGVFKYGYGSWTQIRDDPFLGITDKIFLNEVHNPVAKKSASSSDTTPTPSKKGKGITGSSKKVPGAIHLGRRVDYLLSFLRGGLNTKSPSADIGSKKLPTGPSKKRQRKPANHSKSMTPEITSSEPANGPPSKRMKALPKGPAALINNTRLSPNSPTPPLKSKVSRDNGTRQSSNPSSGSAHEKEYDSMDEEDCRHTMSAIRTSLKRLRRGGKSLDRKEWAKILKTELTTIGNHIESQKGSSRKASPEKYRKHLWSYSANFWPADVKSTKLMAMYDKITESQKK
- test_name: ScCHD-1 Enzyme Inhibition Assay
- Format: functional
- Design: scale not given: in the data most compounds retested in dose-response had high values
- measurement_context: 30 µM
test_readout: Percent Effect (%)
Quick reminder: number only, in %, skip the unit.

Reference set, count: 4
CCOc1ccc(CC(=O)N2CCN(c3nccn3C)CC2)cc1 : -6.41
CCN1CCC2(CC1)CC(NC(=O)NC)c1cc(C)ccc12 (stereo not drawn) : -5.82
COc1ccc2c(c1)CC(NC(=O)NCc1cccs1)CO2 (stereo not drawn) : -2.81
COc1cccc(C(=O)N2CCCC(C(=O)CCc3ccccc3)C2)c1 (stereo not drawn) : -8.9

Task: Given CCc1csc(C2CCCN(C(=O)c3c[nH]c(C)n3)C2)n1 (stereo not drawn) , state its recorded Percent Effect.
Result: -6.32

Task: Given Cn1cc(CN2CCCn3cnc(COCC4CC4)c3C2)cn1 , state its recorded Percent Effect.
Result: -7.64

Task: Given O=C(c1ccc(Cl)o1)N1CCCN(Cc2cscn2)CC1 , state its recorded Percent Effect.
Result: -17.3

Task: Given O=C(Nc1ccccc1OC(F)F)C1=NN(c2ccccc2)C(=O)CN1 , state its recorded Percent Effect.
Result: -4.54

Task: Given Cc1cnc(N2CCC3(CCCN(c4ccc(C)nn4)C3)C2)nc1 (stereo not drawn) , state its recorded Percent Effect.
Result: -5.51

Task: Given CNC(=O)CN1CCC(NC(=O)N(C)Cc2cc(C)on2)CC1 , state its recorded Percent Effect.
Result: -7.35

Task: Given Cc1cc(C)n(CC2CCCCN2CC(=O)Nc2cccnc2)n1 (stereo not drawn) , state its recorded Percent Effect.
Result: -6.32

Task: Given Cc1nn(C)c2c(=O)n(CC(=O)Nc3cc(Cl)cc(Cl)c3)nnc12 , state its recorded Percent Effect.
Result: -8.24

Task: Given O=C(NCc1ccc(-c2ccn[nH]2)cc1)N1CCC(N2CCCC2)C1 (stereo not drawn) , state its recorded Percent Effect.
Result: 1.9

Task: Given CCN(CC1CCOC1)C(=O)c1ccccc1NS(=O)(=O)CC (stereo not drawn) , state its recorded Percent Effect.
Result: -4.83

Task: Given O=C(NCC(F)F)N1CCC(n2ccc(C(F)(F)F)n2)CC1 , state its recorded Percent Effect.
Result: -4.48

Task: Given CCS(=O)(=O)N1CCc2ccc(NC(=O)Nc3ccc(F)cc3F)cc21 , state its recorded Percent Effect.
Result: -9.26

Task: Given Cc1cc(CN2CCN(CC(O)c3ccccc3)CC2)no1 (stereo not drawn) , state its recorded Percent Effect.
Result: -1.57

Task: Given OC(CN1CCN(c2ncccn2)CC1)c1cccc(F)c1 (stereo not drawn) , state its recorded Percent Effect.
Result: -5.42

Task: Given O=C(c1cnco1)N1CCCC(Cc2cccc3ncccc23)C1 (stereo not drawn) , state its recorded Percent Effect.
Result: -18.8

* * *

The reader will find reported Percent Effect values listed item by item below.
- system_name: Chromo domain-containing protein 1 (Saccharomyces cerevisiae (strain ATCC 204508 / S288c) (Baker's yeast))
- test_name: ScCHD-1 Enzyme Inhibition Assay
- Format: functional
- Set-up: scale not given: in the data most compounds retested in dose-response had high values
- measurement_context: 30 µM
Quick reminder: number only, in %, skip the unit.

Task: Given Cc1cccc(-c2nc(CN3CCc4c(ncn4C)C3)no2)c1 , state its recorded Percent Effect.
Result: -2.23

Task: Given CCN(CC(=O)NC(C)C)S(=O)(=O)N1CCCCCC1 , state its recorded Percent Effect.
Result: -10.9

Task: Given Cc1nccc(-c2cccc(NCC(=O)N3CCNC3=O)c2)n1 , state its recorded Percent Effect.
Result: -9.15

Task: Given COCCC1(CO)CCCN(Cc2ccc(F)c(C)c2)C1 (configuration not stated) , state its recorded Percent Effect.
Result: 2.9

Task: Given CCOc1ncccc1CNC(=O)N1CCCC1c1ccncc1 (configuration not stated) , state its recorded Percent Effect.
Result: -7.62

Task: Given COCCNC(=O)NCc1ccc(OC(C)C)c(F)c1 , state its recorded Percent Effect.
Result: 0.0512

Task: Given CN(Cc1ccc2c(c1)OCO2)Cc1nc2c(cnn2C)c(=O)[nH]1 , state its recorded Percent Effect.
Result: -3.9
